Target: T1, human TREM2 (human, UniProt Q9NZC2 19-174, limits assumed)
T1 construct: also called triggering receptor expressed on myeloid cells 2
T1 sequence: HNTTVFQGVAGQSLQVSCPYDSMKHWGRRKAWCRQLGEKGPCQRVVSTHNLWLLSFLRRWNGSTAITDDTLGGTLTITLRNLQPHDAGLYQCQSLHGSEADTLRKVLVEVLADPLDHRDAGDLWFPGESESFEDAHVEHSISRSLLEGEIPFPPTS
Test: 2nd screen, 2 nM
What Binding Signal was measured for each of the following?

1. V89 (antibody, V domains shown, also called 6E7 variant V89) VH: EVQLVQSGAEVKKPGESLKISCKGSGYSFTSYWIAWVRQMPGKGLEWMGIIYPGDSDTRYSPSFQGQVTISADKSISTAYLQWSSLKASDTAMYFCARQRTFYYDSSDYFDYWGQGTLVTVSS VL: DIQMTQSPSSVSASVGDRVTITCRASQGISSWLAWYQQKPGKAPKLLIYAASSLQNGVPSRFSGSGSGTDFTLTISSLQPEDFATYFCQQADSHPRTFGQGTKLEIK :: 0.94 fold over 6E7 parental antibody
2. V24 (antibody, V domains shown, also called 6E7 variant V24) VH: EVQLVQSGAEVKKPGESLKISCKGSGYSFTSYWIAWVRQMPGKGLEWMGIIYPGDSDVRYSPSFQGQVTISADKSISTAYLQWSSLKASDTAMYFCARSRTFYYDSSDYFDYWGQGTLVTVSS VL: DIQMTQSPSSVSASVGDRVTITCRASQGISSWLAWYQQKPGKAPKLLIYAASSLQKGVPSRFSGSGSGTDFTLTISSLQPEDFATYFCQQADSFPHTFGQGTKLEIK :: 1.42 fold over 6E7 parental antibody
3. V87 (antibody, V domains shown, also called 6E7 variant V87) VH: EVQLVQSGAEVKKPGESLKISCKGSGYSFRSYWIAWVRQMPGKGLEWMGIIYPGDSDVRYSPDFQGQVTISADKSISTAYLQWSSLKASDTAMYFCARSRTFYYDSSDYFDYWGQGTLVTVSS VL: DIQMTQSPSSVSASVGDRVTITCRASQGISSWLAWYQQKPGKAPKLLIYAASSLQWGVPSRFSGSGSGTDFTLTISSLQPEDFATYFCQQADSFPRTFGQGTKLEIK :: 4.86 fold over 6E7 parental antibody
4. V40 (antibody, V domains shown, also called 6E7 variant V40) VH: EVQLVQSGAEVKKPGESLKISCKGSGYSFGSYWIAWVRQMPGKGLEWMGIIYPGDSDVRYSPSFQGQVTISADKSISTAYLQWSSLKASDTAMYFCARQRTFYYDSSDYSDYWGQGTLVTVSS VL: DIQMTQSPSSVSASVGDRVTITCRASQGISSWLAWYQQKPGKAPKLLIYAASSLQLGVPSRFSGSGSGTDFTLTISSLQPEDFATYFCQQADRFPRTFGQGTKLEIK :: 3.41 fold over 6E7 parental antibody

Next binder, Binding Signal to be filled in.
Prompt: What value of Binding Signal has been reported for the following binder? V25 (antibody, V domains shown, also called 6E7 variant V25) VH: EVQLVQSGAEVKKPGESLKISCKGSGYSFGSYWIAWVRQMPGKGLEWMGLIYPGDSDTRYSPSFQGQVTISADKSISTAYLQWSSLKASDTAMYFCARSRTFYYDSSDYFDYWGQGTLVTVSS VL: DIQMTQSPSSVSASVGDRVTITCRASQGISSWLAWYQQKPGKAPKLLIYAASSLANGVPSRFSGSGSGTDFTLTISSLQPEDFATYFCQQADSMPRTFGQGTKLEIK
Completion: 3.15 fold over 6E7 parental antibody
